Biological target: Human Thyroid Hormone Receptor α1 (TRα1) (Homo sapiens, UniProt P10827)
Construct: expressed in transfected cells; host or cells: 293T cells
Sequence (P10827 1-410 isoform P10827-2): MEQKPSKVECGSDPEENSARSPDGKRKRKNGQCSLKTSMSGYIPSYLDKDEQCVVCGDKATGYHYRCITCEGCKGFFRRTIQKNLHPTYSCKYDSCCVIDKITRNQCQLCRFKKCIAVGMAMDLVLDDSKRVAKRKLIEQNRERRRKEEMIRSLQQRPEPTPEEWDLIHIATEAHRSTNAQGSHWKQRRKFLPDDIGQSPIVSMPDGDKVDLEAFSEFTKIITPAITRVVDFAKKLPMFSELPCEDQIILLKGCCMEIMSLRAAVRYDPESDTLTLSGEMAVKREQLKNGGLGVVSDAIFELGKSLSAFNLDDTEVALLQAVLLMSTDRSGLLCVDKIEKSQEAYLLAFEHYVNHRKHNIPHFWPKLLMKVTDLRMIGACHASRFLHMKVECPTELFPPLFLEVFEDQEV
Test: Transcription activation test of human thyroid hormone receptor α1 (luciferase reporter in 293T cells)
Assay type: cell-based
Details: ratio TRα/TRβ of the transcription activation EC50 values
resultType: selectivity (TRα/TRβ)

Solved entries:
                                   compound     reportedresult
0  Cc1cc(CC(F)C(=O)O)c(C)c(C)c1Cc1ccc(O)c(C2CCCCC2)n1 (stereo not drawn) [Example 136]    C (2>(TRα/TRβ))
1  Cc1cc(OCc2noc(=O)[nH]2)c(C)c(C)c1Cc1ccc(O)c(C2CCCC2)n1 [Example 32]  B (2<(TRα/TRβ)<5)
2  Cc1cc(-c2cc(O)no2)c(C)c(C)c1Cc1ccc(O)c(C(C)C)n1 [Example 81]  B (2<(TRα/TRβ)<5)
3  Cc1cc(OCc2noc(=O)[nH]2)c(F)c(C)c1Cc1ccc(O)c(-c2ccc(F)c(F)c2F)n1 [Example 191]    A (5<(TRα/TRβ))
4  Cc1cc(OCc2noc(=O)[nH]2)cc(C)c1Cc1ccc(O)c(C2CCCCC2)n1 [Example 28]    C (2>(TRα/TRβ))
5  Cc1cc(NC(=O)C(=O)O)cc(C)c1Cc1ccc(O)c(C2CCCCC2)n1 [Example 19]  B (2<(TRα/TRβ)<5)
6  Cc1cc(OCC(=O)O)cc(C)c1Cc1ccc(O)c(C(C)C)n1 [Example 1]  B (2<(TRα/TRβ)<5)
7  Cc1cc(OCc2noc(=O)[nH]2)c(C)c(C)c1Cc1ccc(O)c(C(C)C)n1 [Example 31]  B (2<(TRα/TRβ)<5)

# compound Cc1cc(NC(=O)CC(=O)O)cc(C)c1Cc1ccc(O)c(C2CCCCC2)n1 [Example 23] ; its selectivity (TRα/TRβ) = A (5<(TRα/TRβ))

meta.source: patent US8791266B2
